target-or-test-system: T1, EBOV GPcl (Ebola virus (EBOV), UniProt Q05320 33-200; Q05320 502-632)
T1 chain 1: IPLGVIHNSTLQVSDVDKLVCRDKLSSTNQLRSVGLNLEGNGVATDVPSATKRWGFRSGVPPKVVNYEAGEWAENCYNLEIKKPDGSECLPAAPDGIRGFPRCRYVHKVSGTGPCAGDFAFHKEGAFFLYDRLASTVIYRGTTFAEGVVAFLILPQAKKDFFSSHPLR
T1 chain 2: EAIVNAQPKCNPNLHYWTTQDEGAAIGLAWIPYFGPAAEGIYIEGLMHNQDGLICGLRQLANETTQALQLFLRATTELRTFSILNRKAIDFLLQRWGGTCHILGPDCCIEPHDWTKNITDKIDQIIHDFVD
procedure-details: ELISA
result-type: EC50 (ng/mL)
Give bare numbers, in ng/mL.

Field EC50 (entry FVM01P (antibody, V domains shown) VH: QVQLQESGPGLVKPSETLSLTCTVSGASISNYRWNWIRQPPGKGLEWIGEINGYSGSTNYNPSLKSRVTISKDASKNQFSLKLTSVTAADTAVYYCPIIGGFTLEWFDVWGPGVLVTVSS VL: DVVLTQSPSSLSASVGDRVTITCRASQGIRNYLNWYQQKPRKAPKLLIYAASSLQSGVPSRFSGSGSGTEFTLTISSLQAEDFATYYCLQGYRTPFTFGPGTKLDIKR ) reads 5

Source of measurements: patent US20170334973A1
